# System: group 3: OR1I1, OR51B6, OR6C1, ATG9A, RP1 and NR2E1 homologous peptide/HLA-A*02:01 complexes (mixed)
# Experiment Description: SPR (BIAcore T200), crude scFv captured, mixed complexes flowed over
Label 1.0 when SPR binding level >= 2 RU; otherwise 0.0.

# count of solved cases: 5
Binder: 75-AS170036 VL1VH1-57K98Q108S (scFv) scFv: QSALTQPRSVSGSPGQSVTISCAGTSSDVGSENYVSWYQQHPGKAPKLMIYQVNKRASGVPDRFSGSKSGNTASLTISGLQAEDEADYYCASYRSSDQNIVFGGGTKLTVLGGGGSGGGGSGGGGSEVQLVESGGGLVQPGGSLRLSCAASGFTFSSYAMSWVRQAPGKGLEWVSTINSGTGKPYYADSVKGRFTISRDNSKNTLYLQMNSLRAEDTAVYYCAKNFFDGSWFLSPPAMDYWGQGTLVTVSSHHHHHH
Class Name: 1.0

Binder: AS170036 VL1VH1 (scFv) scFv: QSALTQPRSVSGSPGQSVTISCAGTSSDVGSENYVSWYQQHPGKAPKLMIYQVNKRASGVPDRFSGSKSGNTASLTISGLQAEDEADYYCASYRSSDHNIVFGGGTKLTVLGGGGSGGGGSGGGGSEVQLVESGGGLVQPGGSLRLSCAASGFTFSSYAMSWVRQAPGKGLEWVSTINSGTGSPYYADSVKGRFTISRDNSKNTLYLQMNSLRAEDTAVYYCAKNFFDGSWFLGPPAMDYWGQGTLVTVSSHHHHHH
Class Name: 0.0

Binder: 45-AS170036 VL1VH1-56Y98I108S (scFv) scFv: QSALTQPRSVSGSPGQSVTISCAGTSSDVGSENYVSWYQQHPGKAPKLMIYQVNKRASGVPDRFSGSKSGNTASLTISGLQAEDEADYYCASYRSSDINIVFGGGTKLTVLGGGGSGGGGSGGGGSEVQLVESGGGLVQPGGSLRLSCAASGFTFSSYAMSWVRQAPGKGLEWVSTINSGTYSPYYADSVKGRFTISRDNSKNTLYLQMNSLRAEDTAVYYCAKNFFDGSWFLSPPAMDYWGQGTLVTVSSHHHHHH
Class Name: 1.0

Binder: 22-AS170036 VL1VH1-57H108A (scFv) scFv: QSALTQPRSVSGSPGQSVTISCAGTSSDVGSENYVSWYQQHPGKAPKLMIYQVNKRASGVPDRFSGSKSGNTASLTISGLQAEDEADYYCASYRSSDHNIVFGGGTKLTVLGGGGSGGGGSGGGGSEVQLVESGGGLVQPGGSLRLSCAASGFTFSSYAMSWVRQAPGKGLEWVSTINSGTGHPYYADSVKGRFTISRDNSKNTLYLQMNSLRAEDTAVYYCAKNFFDGSWFLAPPAMDYWGQGTLVTVSSHHHHHH
Class Name: 1.0

Binder: 03-AS170036 VL1VH1-56Y98Q (scFv) scFv: QSALTQPRSVSGSPGQSVTISCAGTSSDVGSENYVSWYQQHPGKAPKLMIYQVNKRASGVPDRFSGSKSGNTASLTISGLQAEDEADYYCASYRSSDQNIVFGGGTKLTVLGGGGSGGGGSGGGGSEVQLVESGGGLVQPGGSLRLSCAASGFTFSSYAMSWVRQAPGKGLEWVSTINSGTYSPYYADSVKGRFTISRDNSKNTLYLQMNSLRAEDTAVYYCAKNFFDGSWFLGPPAMDYWGQGTLVTVSSHHHHHH
Class Name: 1.0

Could you tell me if the measured SPR binding level of 40-AS170036 VL1VH1-56Y98F108A (scFv) scFv: QSALTQPRSVSGSPGQSVTISCAGTSSDVGSENYVSWYQQHPGKAPKLMIYQVNKRASGVPDRFSGSKSGNTASLTISGLQAEDEADYYCASYRSSDFNIVFGGGTKLTVLGGGGSGGGGSGGGGSEVQLVESGGGLVQPGGSLRLSCAASGFTFSSYAMSWVRQAPGKGLEWVSTINSGTYSPYYADSVKGRFTISRDNSKNTLYLQMNSLRAEDTAVYYCAKNFFDGSWFLAPPAMDYWGQGTLVTVSSHHHHHH reaches 2 RU or more? 1.0

Could you tell me if the measured SPR binding level of 15-AS170036 VL1VH1-57M98Q (scFv) scFv: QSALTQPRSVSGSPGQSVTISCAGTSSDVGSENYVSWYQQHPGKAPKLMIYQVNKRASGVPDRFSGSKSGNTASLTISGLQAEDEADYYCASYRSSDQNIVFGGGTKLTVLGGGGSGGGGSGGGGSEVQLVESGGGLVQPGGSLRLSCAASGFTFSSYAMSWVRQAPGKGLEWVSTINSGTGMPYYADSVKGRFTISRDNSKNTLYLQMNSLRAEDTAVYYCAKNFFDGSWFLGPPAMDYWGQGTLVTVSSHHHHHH reaches 2 RU or more? 0.0

Is reported SPR binding level greater than or equal to 2 RU here: 27-AS170036 VL1VH1-57K108S (scFv) scFv: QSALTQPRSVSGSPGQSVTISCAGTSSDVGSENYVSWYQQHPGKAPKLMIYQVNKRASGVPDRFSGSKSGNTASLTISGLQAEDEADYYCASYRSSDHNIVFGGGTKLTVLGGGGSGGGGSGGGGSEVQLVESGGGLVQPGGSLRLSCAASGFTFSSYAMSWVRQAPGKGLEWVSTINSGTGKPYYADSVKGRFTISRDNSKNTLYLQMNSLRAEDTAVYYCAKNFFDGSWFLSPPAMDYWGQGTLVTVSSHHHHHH 0.0
